Hello, the source for this data is patent US20020177126A1, in case you need it.

tested.target: F protein (RSV F glycoprotein immobilised on the BIAcore sensor chip) (respiratory syncytial virus (RSV), UniProt P03420 26-524)
Sequence (P03420 26-524): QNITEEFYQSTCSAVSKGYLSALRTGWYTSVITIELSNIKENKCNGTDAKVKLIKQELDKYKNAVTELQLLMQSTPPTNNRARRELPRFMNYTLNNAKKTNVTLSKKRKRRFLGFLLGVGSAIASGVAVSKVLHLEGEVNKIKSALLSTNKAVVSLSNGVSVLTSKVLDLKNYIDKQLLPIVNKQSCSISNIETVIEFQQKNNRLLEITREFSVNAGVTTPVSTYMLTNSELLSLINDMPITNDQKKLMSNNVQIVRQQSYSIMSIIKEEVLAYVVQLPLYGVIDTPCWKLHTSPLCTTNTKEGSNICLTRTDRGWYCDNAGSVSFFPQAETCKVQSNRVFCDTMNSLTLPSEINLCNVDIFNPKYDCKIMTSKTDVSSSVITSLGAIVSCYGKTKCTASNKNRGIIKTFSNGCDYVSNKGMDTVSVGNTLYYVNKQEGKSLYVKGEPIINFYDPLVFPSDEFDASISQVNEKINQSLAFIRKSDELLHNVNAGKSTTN
assay.method.text: BIAcore, immobilised F protein
value.type: koff (s⁻¹)

{"binder": "P11d4 (Fab) (Fab, V domains shown) VH: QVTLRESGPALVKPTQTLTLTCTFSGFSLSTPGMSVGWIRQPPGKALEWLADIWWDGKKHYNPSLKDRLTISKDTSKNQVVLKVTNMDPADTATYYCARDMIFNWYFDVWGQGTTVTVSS VL: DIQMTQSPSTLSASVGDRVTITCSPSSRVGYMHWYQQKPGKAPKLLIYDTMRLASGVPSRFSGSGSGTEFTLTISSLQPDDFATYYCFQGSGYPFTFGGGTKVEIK", "value.type": "koff", "endpoint.value": 0.000717}
{"binder": "Y10H6 (Fab) (Fab, V domains shown) VH: QVTLRESGPALVKPTQTLTLTCTFSGFSLSTAGMSVGWIRQPPGKALEWLADIWWDDKKDYNPSLKSRLTISKDTSKNQVVLKVTNMDPADTATYYCARDMIFNWYFDVWGAGTTVTVSS VL: DIQMTQSPSTLSASVGDRVTITCSASSSVGYMHWYQQKPGKAPKLLIYDTRYLSSGVPSRFSGSGSGTEFTLTISSLQPDDFATYYCFQGSGYPFTFGGGTKLEIK", "value.type": "koff", "endpoint.value": 0.000462}
{"binder": "M3H9 (Fab) (Fab, V domains shown) VH: QVTLRESGPALVKPTQTLTLTCTFSGFSLSTAGMSVGWIRQPPGKALEWLADIWWDDKKDYNPSLKSRLTISKDTSKNQVVLKVTNMDPADTATYYCARDMIFNWYFDVWGAGTTVTVSS VL: DIQMTQSPSTLSASVGDRVTITCSASSSVGYMHWYQQKPGKAPKLLIYDTYKQTSGVPSRFSGSGSGTEFTLTISSLQPDDFATYYCFQGSGYPFTFGGGTKLEIK", "value.type": "koff", "endpoint.value": 0.000338}
{"binder": "1X-493L1FR (Fab) (Fab, V domains shown) VH: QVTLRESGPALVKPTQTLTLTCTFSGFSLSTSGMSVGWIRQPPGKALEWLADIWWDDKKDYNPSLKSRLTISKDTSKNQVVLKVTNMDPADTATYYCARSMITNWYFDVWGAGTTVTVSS VL: DIQMTQSPSTLSASVGDRVTITCSASSSVGYMHWYQQKPGKAPKLLIYDTSKLASGVPSRFSGSGSGTEFTLTISSLQPDDFATYYCFQGSGYPFTFGGGTKLEIK", "value.type": "koff", "endpoint.value": 0.00065}
